B1: library; a variant is named by its letters at N, in order (parent)
chain: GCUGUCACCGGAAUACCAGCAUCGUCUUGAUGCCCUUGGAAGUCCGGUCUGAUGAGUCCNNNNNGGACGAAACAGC

Variants of: B1
test: FACS-Seq fitted mean relative fluorescence mCherry/BFP with ligand (log10 relative fluorescence); ligand concentration (+) FACS-Seq: 1 mM; higher = higher reporter protein expression
condition set: HEK293T, ligand present: yes
Reported FACS-Seq fitted mean (log10) by item:
API note: the answer field is a bare number with no unit suffix.

FACS-Seq fitted mean (log10) recorded for this variant, CAGAC , is 0.0728

Form field FACS-Seq fitted mean (log10), entry AAUGU : 0.788

response.value for ACGAG (field: FACS-Seq fitted mean (log10)) = 0.448

Recorded result, CCAGU , FACS-Seq fitted mean (log10): 0.929

CGGAA yielded FACS-Seq fitted mean (log10) of 0.354

FACS-Seq fitted mean (log10) recorded for this variant, CGCAU , is 0.776
